Target: Adenosine receptor A2a (Rattus norvegicus)
Experiment: Displacement of [3H]MSX from A2A receptor in rat brain striatum membranes at 1 uM measured after 30 mins by liquid scintillation counting method relative to control
Type: cell membranes
Kindly return criterion met if reported Activity is no lower than 30%; return criterion not met if it is lower.

Ask | Dear colleague, could you confirm whether Cn1c(=O)c2c(nc3n2CCN(CCCn2cccc2)C3)n(C)c1=O has Activity at or above 30%?
Reply | criterion not met

Ask | Given COc1ccccc1CCN1CCn2c(nc3c2c(=O)n(C)c(=O)n3C)C1 , state whether its Activity is at least 30%.
Reply | criterion not met

Ask | Given COc1cccc2c1CC[C@H](N1CCn3c(nc4c3c(=O)n(C)c(=O)n4C)C1)C2 , state whether its Activity is at least 30%.
Reply | criterion not met

Ask | Has Cn1c(=O)c2c(nc3n2CCN(CCc2ccccc2Br)C3)n(C)c1=O a recorded Activity greater than or equal to 30%?
Reply | criterion not met

Ask | Does the compound Cn1c(=O)c2c(nc3n2CCN(CCc2cc(C(F)(F)F)ccc2F)C3)n(C)c1=O have recorded Activity that is 30% or more?
Reply | criterion not met

Ask | Quick check, Activity >= 30%? Cc1sc(-c2ccc(C(F)(F)F)cc2)nc1CN1CCn2c(nc3c2c(=O)n(C)c(=O)n3C)C1
Reply | criterion not met

Ask | Decide: is the reported value of Activity for C#CCN1CCn2c(nc3c2c(=O)n(C)c(=O)n3C)C1 equal to or greater than 30%?
Reply | criterion not met

Ask | Answer whether Activity of Cn1c(=O)c2c(nc3n2CCN(CCc2ccc(F)c(F)c2)C3)n(C)c1=O is greater than or equal to 30%.
Reply | criterion not met

Ask | Determine whether this compound has Activity no lower than 30%: Cn1c(=O)c2c(nc3n2CCN(CC#Cc2ccc(Cl)c(Cl)c2)C3)n(C)c1=O
Reply | criterion met

Ask | # bool: Activity of Cn1c(=O)c2c(nc3n2CCN(c2ccc(Cl)cc2)C3)n(C)c1=O >= 30%
Reply | criterion met

Ask | State whether the measured Activity reaches 30%, counting equality as reaching it, for Cn1c(=O)c2c(nc3n2CCN(C2CCN(Cc4ccccc4)CC2)C3)n(C)c1=O
Reply | criterion not met

Ask | hey, is Activity for this one >= 30%? COc1cccc(C#CCN2CCn3c(nc4c3c(=O)n(C)c(=O)n4C)C2)c1
Reply | criterion met

Ask | Check this compound for Activity at or above 30%: COc1ccc(Br)cc1CCN1CCn2c(nc3c2c(=O)n(C)c(=O)n3C)C1
Reply | criterion not met

Ask | Determine whether measured Activity meets or exceeds 30% for Cn1c(=O)c2c(nc3n2CCN(CC#Cc2cccc(Cl)c2)C3)n(C)c1=O
Reply | criterion met

Ask | Evaluate COc1ccc(CCN2CCn3c(nc4c3c(=O)n(C)c(=O)n4C)C2)cc1OC : Activity at minimum 30%?
Reply | criterion not met

Ask | Assess whether reported Activity for Cn1c(=O)c2c(nc3n2CCN(C2Cc4ccccc4C2)C3)n(C)c1=O sits at 30% or higher.
Reply | criterion not met

Ask | For this compound, is measured Activity 30% or higher? Cn1c(=O)c2c(nc3n2CCN(CCn2cccc2)C3)n(C)c1=O
Reply | criterion not met

Ask | Threshold query (Activity >= 30%) on Cn1c(=O)c2c(nc3n2CCN(CCCn2ccnc2)C3)n(C)c1=O
Reply | criterion not met

Ask | Determine whether measured Activity meets or exceeds 30% for Cn1c(=O)c2c(nc3n2CCN(CCOc2ccccc2)C3)n(C)c1=O
Reply | criterion not met

Ask | Confirm if Activity reported for the compound Cn1c(=O)c2c(nc3n2CCN(Cc2nocc2-c2ccccc2)C3)n(C)c1=O is 30% or above.
Reply | criterion not met

Ask | Textbook exercise: given the entry Cc1cc(CN2CCn3c(nc4c3c(=O)n(C)c(=O)n4C)C2)n(C)n1 , state whether its Activity is greater than or equal to 30%.
Reply | criterion not met

Ask | Please indicate if the recorded Activity for Cn1c(=O)c2c(nc3n2CCN(CCOc2ccccc2F)C3)n(C)c1=O meets or exceeds 30%.
Reply | criterion not met

Ask | Please tell me: is the compound Cn1c(=O)c2c(nc3n2CCN(Cc2cn(-c4ccc(Cl)cc4)nn2)C3)n(C)c1=O at or over 30% in terms of Activity?
Reply | criterion not met

Ask | Dear colleague, could you confirm whether Cn1c(=O)c2c(nc3n2CCN(CCOc2cccc(F)c2)C3)n(C)c1=O has Activity at or above 30%?
Reply | criterion met

Ask | Assess whether reported Activity for COc1cccc(CCN2CCn3c(nc4c3c(=O)n(C)c(=O)n4C)C2)c1 sits at 30% or higher.
Reply | criterion met

---

Target: Adenosine receptor A2a (Homo sapiens, UniProt P29274)
Sequence (P29274 whole entry): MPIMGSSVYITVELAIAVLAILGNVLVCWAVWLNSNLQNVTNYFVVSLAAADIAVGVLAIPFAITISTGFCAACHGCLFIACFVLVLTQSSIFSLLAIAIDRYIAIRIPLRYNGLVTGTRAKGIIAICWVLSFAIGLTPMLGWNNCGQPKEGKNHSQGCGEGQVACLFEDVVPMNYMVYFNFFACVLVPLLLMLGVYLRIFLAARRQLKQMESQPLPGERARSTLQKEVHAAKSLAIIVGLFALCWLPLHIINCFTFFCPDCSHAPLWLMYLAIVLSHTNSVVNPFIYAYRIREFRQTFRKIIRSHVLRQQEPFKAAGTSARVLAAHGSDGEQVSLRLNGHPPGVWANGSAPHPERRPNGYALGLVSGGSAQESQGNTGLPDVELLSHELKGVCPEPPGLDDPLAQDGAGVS
Experiment: Displacement of [3H]MSX from human A2A receptor measured after 30 mins by liquid scintillation counting method
Endpoint Label: Ki (nM)
A number alone suffices; assume nM.

Entry Cn1c(=O)c2c(nc3n2CCN(CCCc2cccc(Br)c2)C3)n(C)c1=O , Ki reported as 512

What the record says about Cn1c(=O)c2c(nc3n2CCN(CCCc2ccc(Cl)cc2)C3)n(C)c1=O : Ki is 230

Cn1c(=O)c2c(nc3n2CCN(Cc2csc(-c4cccc(Cl)c4)n2)C3)n(C)c1=O has a reported Ki of 363

// recorded Ki for Cn1c(=O)c2c(nc3n2CCN(Cc2csc(-c4ccc(Cl)cc4)n2)C3)n(C)c1=O : 346

Query Cn1c(=O)c2c(nc3n2CCN(Cc2csc(-c4cccs4)n2)C3)n(C)c1=O yields Ki of 203

Reported Ki of Cn1c(=O)c2c(nc3n2CCN([C@@H]2CCCc4ccccc42)C3)n(C)c1=O : 595

Measured Ki of Cn1c(=O)c2c(nc3n2CCN(Cc2csc(-c4ccc(C(F)(F)F)cc4)n2)C3)n(C)c1=O : 217

The measured Ki associated with Cn1c(=O)c2c(nc3n2CCN(c2cccc(Cl)c2)C3)n(C)c1=O reads 8860

---

Biological target: Amine oxidase [flavin-containing] B (Homo sapiens, UniProt P27338)
Sequence (P27338 whole entry): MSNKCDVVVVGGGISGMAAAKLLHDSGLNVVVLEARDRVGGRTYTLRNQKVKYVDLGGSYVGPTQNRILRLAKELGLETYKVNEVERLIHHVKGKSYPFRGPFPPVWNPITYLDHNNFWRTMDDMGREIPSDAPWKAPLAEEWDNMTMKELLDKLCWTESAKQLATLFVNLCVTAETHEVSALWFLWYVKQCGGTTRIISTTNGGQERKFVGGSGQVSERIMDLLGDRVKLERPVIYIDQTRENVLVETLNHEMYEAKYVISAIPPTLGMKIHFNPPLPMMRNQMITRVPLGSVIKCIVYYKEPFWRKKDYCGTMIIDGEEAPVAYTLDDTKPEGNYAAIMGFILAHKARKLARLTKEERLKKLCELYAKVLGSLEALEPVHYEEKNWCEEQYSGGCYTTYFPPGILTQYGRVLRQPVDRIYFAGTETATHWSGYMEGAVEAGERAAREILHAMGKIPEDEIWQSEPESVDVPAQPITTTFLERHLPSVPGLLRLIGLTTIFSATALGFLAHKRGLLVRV
Assay: Inhibition of recombinant human MAO-B expressed in baculovirus infected BTI insect cells preincubated for 30 mins followed by addition of p-tyramine as substrate measured over 45 mins by Amplex Red MAO assay
pIC50: −log10 of the molar value.
Endpoint Label: pIC50

Record Cn1c(=O)c2c(nc3n2CCN(C2CCc4ccccc42)C3)n(C)c1=O (racemic) ; system Amine oxidase [flavin-containing] B (Homo sapiens, UniProt P27338); pIC50 = 5.67

With Amine oxidase [flavin-containing] B (Homo sapiens, UniProt P27338) as the test system, Cn1c(=O)c2c(nc3n2CCN(CCCc2ccc(Cl)cc2)C3)n(C)c1=O showed pIC50 of < 5.00

The value of pIC50 recorded for Cn1c(=O)c2c(nc3n2CCN(Cc2csc(-c4cccc(Cl)c4)n2)C3)n(C)c1=O when tested on Amine oxidase [flavin-containing] B (Homo sapiens, UniProt P27338) reads < 5.00

Cn1c(=O)c2c(nc3n2CCN(CCCn2cccc2)C3)n(C)c1=O on Amine oxidase [flavin-containing] B (Homo sapiens, UniProt P27338) gives pIC50 = < 5.00

The recorded pIC50 with Amine oxidase [flavin-containing] B (Homo sapiens, UniProt P27338) for Cn1c(=O)c2c(nc3n2CCN(CC#Cc2cccc(Cl)c2)C3)n(C)c1=O was < 5.00

Per the reported Amine oxidase [flavin-containing] B (Homo sapiens, UniProt P27338) data, Cn1c(=O)c2c(nc3n2CCN(Cc2nocc2-c2ccccc2)C3)n(C)c1=O has pIC50 of < 5.00

Field pIC50 (system: Amine oxidase [flavin-containing] B (Homo sapiens, UniProt P27338)) for entry Cn1c(=O)c2c(nc3n2CCN(CCc2ccccc2)C3)n(C)c1=O = < 5.00

pIC50 for Amine oxidase [flavin-containing] B (Homo sapiens, UniProt P27338) with input COc1cccc(CCN2CCn3c(nc4c3c(=O)n(C)c(=O)n4C)C2)c1 equals < 5.00

The recorded pIC50 with Amine oxidase [flavin-containing] B (Homo sapiens, UniProt P27338) for Cn1c(=O)c2c(nc3n2CCN(c2cccc(F)c2)C3)n(C)c1=O was 5.82

Fill in: Amine oxidase [flavin-containing] B (Homo sapiens, UniProt P27338) pIC50 for Cn1c(=O)c2c(nc3n2CCN(CCc2ccc4c(c2)OCO4)C3)n(C)c1=O = < 5.00

---

Target: Adenosine receptor A2b (Homo sapiens, UniProt P29275)
Sequence (P29275 whole entry): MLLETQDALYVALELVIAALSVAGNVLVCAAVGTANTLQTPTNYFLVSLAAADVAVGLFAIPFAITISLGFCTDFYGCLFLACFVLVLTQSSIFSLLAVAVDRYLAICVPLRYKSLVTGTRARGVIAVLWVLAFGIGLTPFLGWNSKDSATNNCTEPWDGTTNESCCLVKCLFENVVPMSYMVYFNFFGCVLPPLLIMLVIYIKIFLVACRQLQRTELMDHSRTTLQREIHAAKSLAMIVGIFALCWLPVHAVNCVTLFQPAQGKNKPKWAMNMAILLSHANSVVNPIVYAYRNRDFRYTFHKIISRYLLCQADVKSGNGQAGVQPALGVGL
Test: Displacement of [3H]PSB-603 from human A2B receptor expressed in CHO cell membrane
Format: cell membranes
pKi: −log10 of the molar value.
Provide the recorded pKi for the entries that follow.

Field pKi (entry Cn1c(=O)c2c(nc3n2CCN(CCc2cccc(Cl)c2)C3)n(C)c1=O ) reads < 6.00

GET /value?item= Cn1c(=O)c2c(nc3n2CCN(CCn2cccc2)C3)n(C)c1=O &field=pKi returns < 6.00

Please fill in: pKi reported for Cn1c(=O)c2c(nc3n2CCN(c2cccc(Cl)c2)C3)n(C)c1=O = < 6.00

Item: COc1ccc(CCN2CCn3c(nc4c3c(=O)n(C)c(=O)n4C)C2)cc1OC | pKi: < 6.00

// pKi value for COc1ccc(Br)cc1CCN1CCn2c(nc3c2c(=O)n(C)c(=O)n3C)C1 : < 6.00

The molecule identified as Cn1c(=O)c2c(nc3n2CCN(C2Cc4ccccc4C2)C3)n(C)c1=O registered its pKi at < 6.00

Measured pKi of Cn1c(=O)c2c(nc3n2CCN(CCOc2ccccc2F)C3)n(C)c1=O : < 6.00

Looking up Cn1c(=O)c2c(nc3n2CCN(CCc2cccc(F)c2)C3)n(C)c1=O , I see its pKi listed as < 6.52

pKi in this record for COc1cccc(CCN2CCn3c(nc4c3c(=O)n(C)c(=O)n4C)C2)c1OC : < 6.00

Query Cn1c(=O)c2c(nc3n2CCN(Cc2csc(-c4ccc(Cl)cc4)n2)C3)n(C)c1=O yields pKi of < 6.00
